System: P. falciparum
Settings: read-out: chloroquine IC50, control (no NPE added); control without NPE, used to calculate the degree of chloroquine resistance

{"compound": "CCN(CC)CCCC(C)Nc1ccnc2cc(Cl)ccc12 (stereo not shown)", "IC50, nM": 274}
